Test: UTs concentration and renal uptake ratio detection in WT and KO rats
Format: in vivo, rat
Details: 4W and/or 7W rats, n = 7
Result type: plasma concentration of endogenous UT, KO compared with WT rats

{"Molecule": "N[C@@H](CCCCNCC(=O)O)C(=O)O", "Assay value": "significantly increased"}
{"Molecule": "OC[C@H]1O[C@@H](Oc2c[nH]c3ccccc23)[C@H](O)[C@@H](O)[C@@H]1O [3-indolyl-β-D-glucopyranoside]", "Assay value": "significantly increased"}
{"Molecule": "CC(=O)N[C@@H](CCCN=C(N)N)C(=O)O", "Assay value": "significantly increased"}
